- assayed.target: CDK19/Cyclin C (Homo sapiens)
- Sequence (Q9BWU1 whole entry): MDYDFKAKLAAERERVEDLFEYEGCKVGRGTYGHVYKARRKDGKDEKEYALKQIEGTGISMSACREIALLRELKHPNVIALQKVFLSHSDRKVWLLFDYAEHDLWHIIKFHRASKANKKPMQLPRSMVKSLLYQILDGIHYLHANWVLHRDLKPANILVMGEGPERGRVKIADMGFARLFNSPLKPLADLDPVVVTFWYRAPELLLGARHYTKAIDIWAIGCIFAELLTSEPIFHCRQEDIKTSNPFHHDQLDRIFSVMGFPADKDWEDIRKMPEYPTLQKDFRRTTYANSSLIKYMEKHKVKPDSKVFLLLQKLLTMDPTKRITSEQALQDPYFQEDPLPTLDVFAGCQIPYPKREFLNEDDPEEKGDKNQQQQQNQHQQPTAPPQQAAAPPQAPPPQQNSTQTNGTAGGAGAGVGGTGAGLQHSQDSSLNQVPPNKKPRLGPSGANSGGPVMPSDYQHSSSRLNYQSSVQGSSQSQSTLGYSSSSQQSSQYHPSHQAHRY
- Sequence (P24863 whole entry partner): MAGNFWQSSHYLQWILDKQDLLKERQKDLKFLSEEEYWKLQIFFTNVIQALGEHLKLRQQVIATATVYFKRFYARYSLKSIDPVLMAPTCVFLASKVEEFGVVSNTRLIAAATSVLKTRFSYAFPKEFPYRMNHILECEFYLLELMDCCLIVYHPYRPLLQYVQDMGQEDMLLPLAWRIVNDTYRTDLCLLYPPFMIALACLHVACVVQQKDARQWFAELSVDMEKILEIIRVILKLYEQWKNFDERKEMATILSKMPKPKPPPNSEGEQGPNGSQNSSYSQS
- method.summary: NanoBRET live-cell target engagement, NanoLuc-CDK19/Cyclin C in HEK-293
- test.context: CDK19/C; experiment 1
So basically, if Inhibition at 10µM (%) comes in under 80% it's label 1, and if it's 80% or more it's label 0.

These solved cases illustrate the format of a correct answer.
CC(C)c1c2cc(-c3ccnc(N[C@H]4CC[C@H](NC5CCOCC5)CC4)n3)ccc2nn1C
label 0
CC(C)c1cnn2c(NCc3ccccc3-n3cccn3)nc(OC3CCCNC3)nc12 (stereo not drawn)
label 1
CN1CCC(c2c(O)cc(O)c3c(=O)cc(-c4ccccc4Cl)oc23)C1CO (stereo not drawn)
label 1
CNc1nc(C)c(-c2nc(Nc3cccc(S(N)(=O)=O)c3)ncc2F)s1
label 1
CCn1cnc2c(Nc3cccc(Cl)c3)nc(N[C@@H]3CCCC[C@@H]3N)nc21 [CGP74514A]
label 1

Let us examine a further case.
Prompt: Given CS(=O)(=O)N1CCC(NC(=O)c2[nH]ncc2NC(=O)c2c(Cl)cccc2Cl)CC1 , is recorded Inhibition at 10µM (%) strictly lower than 80%?
Response: label 1

* * *

Listed compounds paired with reported Inhibition at 10µM (%) Average
- assayed.target: CDK1/Cyclin E1 (Homo sapiens)
- Sequence (P06493 whole entry): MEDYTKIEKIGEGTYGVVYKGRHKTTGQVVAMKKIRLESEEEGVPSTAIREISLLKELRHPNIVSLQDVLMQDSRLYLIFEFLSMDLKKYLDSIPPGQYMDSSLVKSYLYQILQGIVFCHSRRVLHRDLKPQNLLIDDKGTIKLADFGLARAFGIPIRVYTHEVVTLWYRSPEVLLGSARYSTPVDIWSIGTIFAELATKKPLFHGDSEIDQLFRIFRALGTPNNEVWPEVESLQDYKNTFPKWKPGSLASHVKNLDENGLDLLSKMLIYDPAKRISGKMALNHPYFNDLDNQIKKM
- Sequence (P24864 whole entry partner): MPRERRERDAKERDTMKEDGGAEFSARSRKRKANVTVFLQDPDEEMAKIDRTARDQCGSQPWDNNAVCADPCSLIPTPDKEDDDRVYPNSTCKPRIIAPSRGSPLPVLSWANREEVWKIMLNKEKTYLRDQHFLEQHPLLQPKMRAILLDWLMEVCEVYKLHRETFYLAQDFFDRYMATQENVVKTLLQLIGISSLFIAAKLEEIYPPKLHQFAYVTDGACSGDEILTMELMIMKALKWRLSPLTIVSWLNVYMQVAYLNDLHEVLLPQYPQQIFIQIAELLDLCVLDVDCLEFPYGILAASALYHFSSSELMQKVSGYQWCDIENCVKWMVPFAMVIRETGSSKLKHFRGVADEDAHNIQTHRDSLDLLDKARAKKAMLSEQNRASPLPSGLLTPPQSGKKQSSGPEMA
- method.summary: NanoBRET live-cell target engagement, CDK1-NanoLuc/Cyclin E1 in HEK-293
- Format: binding
- test.context: CDK1/E1; 10µM; average of replicates
Report as a plain number; the unit % is understood.

Prompt: Any idea what Inhibition at 10µM (%) Average was measured for CCC(CO)Nc1nc(Nc2cccc(-c3ccccn3)c2)c2ncn(C(C)C)c2n1.Cl.O [(R) - DRF053] ?
Response: 44.0

Prompt: // query: CC(C)c1cnn2c(NCc3ccccc3)cc(N[C@@H](CO)[C@H](O)CO)nc12
Response: 75.1

Prompt: Query CNC1CCN(C(=O)c2ccc(Nc3ncc(F)c(-c4cnc(C)n4C(C)C)n3)cc2)C1 (stereo not shown) next
Response: 94.6

Prompt: Do the same for O=C(Nc1c[nH]nc1-c1ccccn1)c1nn(C2CCNCC2)cc1Cl please
Response: 15.6

* * *

- assayed.target: CDK11A/Cyclin L2 (Homo sapiens)
- Sequence (Q9UQ88 1-783): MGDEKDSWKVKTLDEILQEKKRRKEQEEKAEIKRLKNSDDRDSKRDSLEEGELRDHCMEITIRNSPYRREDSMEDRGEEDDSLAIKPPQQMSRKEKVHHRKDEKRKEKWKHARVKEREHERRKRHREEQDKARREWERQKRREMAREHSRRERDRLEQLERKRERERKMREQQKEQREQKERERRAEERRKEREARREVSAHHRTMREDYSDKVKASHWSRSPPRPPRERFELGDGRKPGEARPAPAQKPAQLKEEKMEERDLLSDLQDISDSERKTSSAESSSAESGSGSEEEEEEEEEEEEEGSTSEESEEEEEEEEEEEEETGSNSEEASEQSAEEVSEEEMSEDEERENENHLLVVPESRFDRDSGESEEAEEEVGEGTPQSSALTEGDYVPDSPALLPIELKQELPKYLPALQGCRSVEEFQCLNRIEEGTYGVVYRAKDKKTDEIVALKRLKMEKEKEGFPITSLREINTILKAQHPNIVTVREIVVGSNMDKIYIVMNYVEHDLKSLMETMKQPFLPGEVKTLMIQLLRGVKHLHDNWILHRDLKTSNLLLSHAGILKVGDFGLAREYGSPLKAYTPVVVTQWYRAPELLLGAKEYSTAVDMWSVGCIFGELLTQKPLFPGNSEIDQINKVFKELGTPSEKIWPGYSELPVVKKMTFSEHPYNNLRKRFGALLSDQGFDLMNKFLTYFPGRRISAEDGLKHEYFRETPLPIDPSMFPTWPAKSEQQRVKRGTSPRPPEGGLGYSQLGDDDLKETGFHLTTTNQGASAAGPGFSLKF
- method.summary: NanoBRET live-cell target engagement, CDK11A-NanoLuc/Cyclin L2 in HEK-293
- Format: binding
- test.context: independent experiment 3; read-out: CDK11a/L2 IC50
reported.property: IC50 (µM)
Number in µM, nothing else.

Prompt: Tell me the measured IC50 of CN(C)C/C=C/C(=O)Nc1ccc(C(=O)Nc2cccc(Nc3ncc(Cl)c(-c4c[nH]c5ccccc45)n3)c2)cc1 , please.
Response: 0.218

* * *

Listed molecules paired with reported IC50
- assayed.target: CDK4/Cyclin D1 (Homo sapiens, UniProt P11802)
- Sequence (P11802 whole entry): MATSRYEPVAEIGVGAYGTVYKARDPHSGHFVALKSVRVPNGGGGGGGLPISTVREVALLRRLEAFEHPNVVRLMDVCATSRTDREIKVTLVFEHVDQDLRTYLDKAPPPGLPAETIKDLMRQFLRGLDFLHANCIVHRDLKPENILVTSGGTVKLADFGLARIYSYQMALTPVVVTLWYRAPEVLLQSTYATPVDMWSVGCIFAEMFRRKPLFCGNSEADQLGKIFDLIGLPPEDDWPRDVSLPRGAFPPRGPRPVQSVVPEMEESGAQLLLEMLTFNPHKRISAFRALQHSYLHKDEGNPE
- Sequence (P24385 whole entry partner): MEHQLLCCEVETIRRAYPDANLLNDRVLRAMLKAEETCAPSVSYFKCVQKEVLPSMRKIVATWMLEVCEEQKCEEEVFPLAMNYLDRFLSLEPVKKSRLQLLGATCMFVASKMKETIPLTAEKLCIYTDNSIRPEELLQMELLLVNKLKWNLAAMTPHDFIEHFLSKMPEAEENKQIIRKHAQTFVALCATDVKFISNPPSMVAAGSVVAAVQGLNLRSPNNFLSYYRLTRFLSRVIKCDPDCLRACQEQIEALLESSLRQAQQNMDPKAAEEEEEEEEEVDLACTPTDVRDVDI
- method.summary: NanoBRET live-cell target engagement, NanoLuc-CDK4/Cyclin D1 in HEK-293
- Format: binding
- test.context: CDK4/D1; experiment 3; read-out: IC50

Worked cases, IC50 given:
CN1CCC(c2c(O)cc(O)c3c(=O)cc(-c4ccccc4Cl)oc23)C1CO (stereo not shown) [P276-00]
301 nM
CC(C)c1cnn2c(NCc3ccccc3)cc(NC[C@H]3CCNC[C@@H]3O)nc12 [CT7001]
60 nM
CN1CCN(c2ccc(Nc3ncc4cc(C#N)c(=O)n(C5CCCC5)c4n3)cc2)CC1 [ON123300]
15 nM

Could you now consider this next molecule?
Prompt: Form field: reported IC50 of CC(C)c1cnn2c(NCc3ccccc3-n3cccn3)nc(OC3CCCNC3)nc12 (stereo not shown) [LDC4297]
Response: 104 nM

* * *

- assayed.target: CDK19/Cyclin C (Homo sapiens)
- method.summary: NanoBRET live-cell target engagement, NanoLuc-CDK19/Cyclin C in HEK-293
- test.context: read-out: IC50 (nM) Replicate 1; CDK19/C
reported.property: IC50 (nM)
The figure you give is taken to be in nM; do not add the unit.

Prompt: # value lookup — system CDK19/Cyclin C (Homo sapiens), readout IC50, item CNC1CCN(C(=O)c2ccc(Nc3ncc(F)c(-c4cnc(C)n4C(C)C)n3)cc2)C1 (stereo not shown) [AZD5597]
Response: 354

* * *

- assayed.target: CDK2/Cyclin E1 (Homo sapiens)
- method.summary: NanoBRET live-cell target engagement, CDK2-NanoLuc/Cyclin E1 in HEK-293
- Format: binding
- test.context: independent experiment 2; read-out: CDK2/E1 IC50
reported.property: pIC50
// scale note: pIC50 = -log10(conc_M); give the bare number

Prompt: Item under review: COCCN1CCN(Cc2ccc(-c3n[nH]c4c3C(=O)c3c(NC(=O)NN5CCOCC5)cccc3-4)cc2)CC1 . Reported pIC50?
Response: 8.01

* * *

As shown below, each of these molecules has a reported inhibition at 10 µM value.
- assayed.target: CDK17/Cyclin Y (Homo sapiens)
- Sequence (Q00537 whole entry): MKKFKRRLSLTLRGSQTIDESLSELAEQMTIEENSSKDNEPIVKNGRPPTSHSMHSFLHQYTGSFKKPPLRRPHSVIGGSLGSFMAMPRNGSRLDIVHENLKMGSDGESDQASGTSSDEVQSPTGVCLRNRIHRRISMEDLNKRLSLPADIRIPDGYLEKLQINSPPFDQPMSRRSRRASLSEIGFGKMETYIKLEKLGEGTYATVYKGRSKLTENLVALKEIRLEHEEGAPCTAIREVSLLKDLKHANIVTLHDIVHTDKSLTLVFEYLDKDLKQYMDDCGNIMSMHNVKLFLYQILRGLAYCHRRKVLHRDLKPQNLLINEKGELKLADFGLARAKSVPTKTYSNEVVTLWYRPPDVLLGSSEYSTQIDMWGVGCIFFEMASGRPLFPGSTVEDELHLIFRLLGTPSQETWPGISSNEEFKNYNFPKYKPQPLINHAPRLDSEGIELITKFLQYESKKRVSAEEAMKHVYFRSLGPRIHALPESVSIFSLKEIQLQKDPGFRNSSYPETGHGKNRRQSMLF
- Sequence (Q8ND76 whole entry partner): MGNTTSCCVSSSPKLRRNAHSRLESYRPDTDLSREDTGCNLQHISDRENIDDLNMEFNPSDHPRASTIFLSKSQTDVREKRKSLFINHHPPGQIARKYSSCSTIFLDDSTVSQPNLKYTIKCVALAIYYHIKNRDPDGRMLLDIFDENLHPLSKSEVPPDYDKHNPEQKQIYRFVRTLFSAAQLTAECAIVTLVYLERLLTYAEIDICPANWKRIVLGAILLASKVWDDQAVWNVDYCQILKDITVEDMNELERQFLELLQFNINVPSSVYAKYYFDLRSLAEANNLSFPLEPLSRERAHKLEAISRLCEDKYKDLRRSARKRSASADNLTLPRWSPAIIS
- method.summary: NanoBRET live-cell target engagement, CDK17-NanoLuc/Cyclin Y in HEK-293
- Type: binding
- test.context: 10µM; independent experiment 2; read-out: CDK17/Y Inhibition at 10µM (%)
Please append the unit to your numeric answer.

CC(C)[C@H](CO)Nc1nc(Nc2ccc(C(=O)O)c(Cl)c2)c2ncn(C(C)C)c2n1
4.7%

Prompt: Recorded inhibition at 10 µM of CC(C)CC(=O)Nc1[nH]nc2c1CN(C(=O)C1CCN(C)CC1)C2(C)C , please.
Response: 87.4%

* * *

- assayed.target: CDK4/Cyclin D1 (Homo sapiens, UniProt P11802)
- method.summary: NanoBRET live-cell target engagement, NanoLuc-CDK4/Cyclin D1 in HEK-293
- Type: binding
- test.context: CDK4/D1; 10µM
reported.property: Inhibition at 10µM (%) Replicate 2
Quick note: give the figure in %, leave out the unit.

// below: answered compounds
CNC1CCN(C(=O)c2ccc(Nc3ncc(F)c(-c4cnc(C)n4C(C)C)n3)cc2)C1 (stereo not shown) [AZD5597]
98.2
O=C(Nc1c[nH]nc1-c1ccccn1)c1nn(C2CCNCC2)cc1Cl [BDP5290]
14.4

Prompt: Reported Inhibition at 10µM (%) Replicate 2 for CCC(CO)Nc1nc(Nc2cccc(-c3ccccn3)c2)c2ncn(C(C)C)c2n1.Cl.O [(R) - DRF053] : what is it?
Response: 22.3

Prompt: Also need CC(C)c1cnn2c(NCc3ccccc3)cc(N[C@@H](CO)[C@H](O)CO)nc12 [BS-194] , thanks.
Response: 68.7

* * *

- assayed.target: CDK14/Cyclin Y (Homo sapiens)
- Sequence (O94921 whole entry): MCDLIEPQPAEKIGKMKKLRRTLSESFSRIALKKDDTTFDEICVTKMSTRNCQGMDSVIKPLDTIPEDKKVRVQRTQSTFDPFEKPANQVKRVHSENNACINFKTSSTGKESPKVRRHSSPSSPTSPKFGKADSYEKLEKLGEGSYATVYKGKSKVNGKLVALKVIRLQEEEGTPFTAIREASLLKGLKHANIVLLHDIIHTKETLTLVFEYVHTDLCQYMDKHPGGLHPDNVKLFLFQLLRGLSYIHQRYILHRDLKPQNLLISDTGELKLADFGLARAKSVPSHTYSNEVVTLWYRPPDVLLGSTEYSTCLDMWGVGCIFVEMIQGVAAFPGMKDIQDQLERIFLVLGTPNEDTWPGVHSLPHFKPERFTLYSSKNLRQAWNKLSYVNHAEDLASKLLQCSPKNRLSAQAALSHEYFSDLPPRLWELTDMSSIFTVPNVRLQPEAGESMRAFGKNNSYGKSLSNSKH
- Sequence (Q8ND76 whole entry partner): as the sequence (Q8ND76 whole entry partner) above
- method.summary: NanoBRET live-cell target engagement, CDK14-NanoLuc/Cyclin Y in HEK-293
- Format: binding
- test.context: CDK14/Y; experiment 2; read-out: IC50
Measured pIC50, listed per entry for reference.
Bear in mind: pIC50 is minus log10 of a mol/L concentration; give just that figure.

Please review the following examples before continuing.
CS(=O)(=O)N1CCC(NC(=O)c2[nH]ncc2NC(=O)c2c(Cl)cccc2Cl)CC1
6.48
CNc1nc(C)c(-c2nc(Nc3cccc(S(N)(=O)=O)c3)ncc2F)s1
7.43
CN1CCN(c2ccc(Nc3ncc4cc(C#N)c(=O)n(C5CCCC5)c4n3)cc2)CC1
6.66

# evaluate next
Prompt: // lookup pIC50 for CC(C)c1c2cc(-c3ccnc(N[C@H]4CC[C@H](NC5CCOCC5)CC4)n3)ccc2nn1C
Response: 6.20
